The measurements presented in this section are drawn from paper PMC7155171.

System: P. falciparum Dd2
Assay: SYBR green I asexual blood stage proliferation assay (96 h)
Type: cell-based, Plasmodium falciparum
Conditions: Plasmodium falciparum, DD2; Sybr Green I, 11-pt dose response, 96hr; read-out: CDD P. falciparum Sybr Green I ABS 11-pt Reconfirmation Dose Response (96hr): Maximum inhibition (%)
observed_property: Emax (%)
Give bare numbers, in %.

Answered cases to consult:
>>> data_value("CCOc1ccc(Br)cc1C1CCCN1 (stereo not drawn)")
78.7
>>> data_value("CC1(C)CC(N(Cc2cccnc2)Cc2cccc(F)c2)CC(C)(C)N1")
79.9
>>> data_value("COc1cc(CNCC(O)c2cccc(F)c2)cc2c1OCO2 (stereo not drawn)")
88.3

For the 2 compounds below, give their Emax values.
1. OC(CNCc1ccccc1C(F)(F)F)c1ccccc1 (stereo not drawn)
2. CC(C)CN1CCCC1c1ccc(C(=O)Nc2cccnc2)s1 (stereo not drawn)

1: 87.9; 2: 91.6

// Emax (P. falciparum Dd2) for CC[C@H]1CN2CC[C@H]1C[C@@H]2CNCc1ccc(OC(F)(F)F)cc1 = 89.4

###

System: P. falciparum Dd2
Assay: SYBR green I asexual blood stage proliferation assay (96 h)
Format: cell-based, Plasmodium falciparum
Settings: Plasmodium falciparum, DD2; 11-pt dose response, 96hr; read-out: P. falciparum Sybr Green I ABS 11-pt Reconfirmation Dose Response (96hr): Maximum inhibition (%)
observed_property: Emax (%)
Numbers only, in %.

Known results for compounds:
>>> data_value("Cc1cccnc1[C@H](C)Nc1nc(-c2cccnc2)nc2c1CNC2")
91.2
>>> data_value("COCCN(C)Cc1cc(Cl)ccc1OCC(O)CN1CCCCCC1 (stereo not drawn)")
91.7

Measured Emax (P. falciparum Dd2), entry CC(O)CN1CCC(CNCc2cccc(C(F)(F)F)c2)CC1 (stereo not drawn) : 91.1

###

System: P. falciparum Dd2 (PfLuc) line expressing firefly luciferase, asexual blood stage
Assay: microbe, parasite or virus in culture
Assay type: cell-based, Plasmodium falciparum
Settings: Plasmodium falciparum, DD2; 11-pt dose response, 96hr; read-out: P. falciparum Luciferase ABS 11-pt Reconfirmation Dose Response (96hr): Maximum inhibition (%)
observed_property: Emax (%)
Give bare numbers, in %.

>>> data_value("Cc1ccc(CN(CCN(C)C)Cc2c(C)nc3sccn23)o1 [DDD01056924]")
88.8
>>> data_value("CCn1ccnc1CN1CCCC(CO)(Cc2cccc(Cl)c2)C1 (centres unmarked) [DDD01258327]")
82.9
>>> data_value("NC1CCCCN(Cc2cc(-c3ccccc3OC(F)(F)F)no2)C1 (centres unmarked) [DDD01244394]")
97.5
>>> data_value("CO[C@H]1CN(C(C)C)C[C@@H]1NC(=O)c1cc(-c2ccccc2O)n[nH]1 [DDD01257008]")
97.2
>>> data_value("Cc1cc(N2CCC(NC(C)Cc3ccsc3)CC2)nc(C)n1 (centres unmarked) [DDD01076128]")
96.6
>>> data_value("CCc1ccc(CN(CCN(C)C)Cc2ccc(C)s2)nc1 [DDD01249772]")
101
>>> data_value("COc1cccc(OC)c1CN1CC(=O)N(c2ccc(C)cc2)CC1C (centres unmarked) [DDD01252418]")
93.6

Emax reported for this compound CC(C)(C)c1cn2c(n1)C(CNCc1ccccn1)CCC2 (centres unmarked) [DDD01062588, CC(C)(C)C1=CN2CCCC(CNCC3=CC=CC=N3)C2=N1] : 98.6
